# maps each entry to its activation
- PROCEDURE_DETAILS: SMARCA2 (BRM) function activators, primary screen, cell-based, luminescence, high throughput (AID 652017);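 note: 0% = vehicle wells and 100% = reference activator wells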
- TEST_CONDITIONS: MG213 cells, MMTV-luciferase reporter, dexamethasone, overnight; at 9.1 µM; active compounds read high
In all, about 370,000 compounds went through this assay and about 3,800 (1%) were called active. The entries come from a sample that favours actives as a whole.
The figure you give is taken to be in %; do not add the unit.

Solved cases (5 shown):
>>> data_value("Cn1nc(C(F)(F)F)c2cc(NC(=O)OCC(C)(C)C)sc21")
7.24
>>> data_value("O=C(NCCC1=CCCCC1)C1CCN(S(=O)(=O)c2ccc(Cl)s2)CC1")
-6.89
>>> data_value("CCOc1ccc(NC(=S)N2CCC(N(C)CC3CCCO3)CC2)cc1 (stereo unspecified)")
4.49
>>> data_value("Cc1ccc(-c2c(C)n([O-])c3c([n+]2=O)CCC3)cc1")
14.5
>>> data_value("COc1ccc(OCc2cc(C(=O)N3CCCC3)no2)c2ccccc12")
5.22

Input line: Look at this molecule and give its reported activation. CCOC(=O)C(C)n1cnc2c(nnn2-c2ccc(F)cc2)c1=O (stereo unspecified)
Output line: 0.38

Input line: Same thing, different molecule: COC(=O)C(C)n1cnc2c(nnn2-c2ccc(F)cc2)c1=O (stereo unspecified)
Output line: 2.24

---

- PROCEDURE_DETAILS: SMARCA2 (BRM) function activators, primary screen, cell-based, luminescence, high throughput (AID 652017);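 note: 0% = vehicle wells and 100% = reference activator wells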
- TEST_CONDITIONS: MG213 cells, MMTV-luciferase reporter, dexamethasone, overnight; at 9.1 µM
The whole screen tested about 370,000 compounds, of which about 3,800 (1%) were called active. No stated cut-off is given here; in the data, active means activation above about 7.8%; inactive means the rest. What follows is part of a selection rich in actives, with near analogues and random picks from the rest.
Field 'call' accepts active, inactive

Here are 4 compounds together with their reported answers.
>>> group_label("Cc1ccc(C(=O)OC2=CC(=O)CC(C)(C)C2)cc1")
"inactive"
>>> group_label("CC(C)N1CCCCC(NC(=O)c2ccc3ccccc3c2)C1=O (stereo unspecified)")
"inactive"
>>> group_label("COc1ccc(C(=O)NC2=NCCS2)c(OC)c1")
"active"
>>> group_label("CSc1ccc(C=Nn2c(-c3ccc(F)cc3)n[nH]c2=S)cc1")
"inactive"

Input line: Each compound tested received a call. Report the one for `O=C(CSc1nc2ccccc2n1Cc1ccccc1)NNC(=S)Nc1ccccc1` .
Output line: inactive

Input line: Same thing, different compound: `O=C(NC1=NCCS1)c1ccc(Cl)s1`
Output line: inactive

---

- PROCEDURE_DETAILS: SMARCA2 (BRM) function activators, primary screen, cell-based, luminescence, high throughput (AID 652017);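 note: 0% = vehicle wells and 100% = reference activator wells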
- TEST_CONDITIONS: MG213 cells, MMTV-luciferase reporter, dexamethasone, overnight; at 9.1 µM; active compounds read high
Hit rate of the full screen: of about 370,000 compounds, about 3,800 (1%) were called active. For the sample, actives were picked, then their nearest neighbours and some compounds at random.
OBSERVATION_TYPE: activation (%)
The figure you give is taken to be in %; do not add the unit.

>>> data_value("O=C(Nc1ccc2nc3n(c(=O)c2c1)CCCC3)c1ccc(Cl)nc1")
-1.5

Input line: Look at this molecule and give its reported activation. `CCN(CC)C(=O)CC[C@H]1CC[C@]2(CCCN(Cc3ccc(Cl)cc3)C2)O1`
Output line: -0.46

Input line: Same thing, different molecule: `CCOc1ccc(C(=O)Nc2nccs2)cc1[N+](=O)[O-]`
Output line: 5.63

Input line: Same thing, different molecule: `CC(=O)c1ccc(NC(=O)c2sc3nc4n(c(=O)c3c2C)CCCCC4)cc1`
Output line: 9.72

---

- PROCEDURE_DETAILS: SMARCA2 (BRM) function activators, primary screen, cell-based, luminescence, high throughput (AID 652017);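 note: 0% = vehicle wells and 100% = reference activator wells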
- TEST_CONDITIONS: MG213 cells, MMTV-luciferase reporter, dexamethasone, overnight; at 9.1 µM
Hit rate of the full screen: of about 370,000 compounds, about 3,800 (1%) were called active. Rule as the data show it: active = activation above about 7.8%; inactive = the rest. The sample as a whole holds a higher share of actives than the screen did.
Field 'call' accepts active, inactive

Here are 8 compounds together with their reported answers.
>>> group_label("Cc1nc2ccccc2n1CC(=O)N/N=C/c1cccs1")
"inactive"
>>> group_label("Cc1c(C(C)c2ccccc2O)[nH]c2ccccc12 (configuration not stated)")
"inactive"
>>> group_label("COCn1c(COc2ccccc2)nc2ccccc21")
"active"
>>> group_label("CCCCNC(=O)C[C@H]1C(=O)N(Cc2ccc(OC)cc2)C2=CCCC[C@@]21C(=O)OCC")
"inactive"
>>> group_label("O=C(Nc1ccc2c(c1)[C@@H]1C[C@@H](CC(=O)N3CCCCC3)O[C@@H](CO)[C@@H]1O2)NC1CCCCC1")
"inactive"
>>> group_label("CCOC(=O)N1CCN(C(=O)C[C@@H]2C(=O)N(CCc3ccc(Cl)cc3)C3=CCCC[C@]32C(=O)OCC)CC1")
"inactive"
>>> group_label("Cn1c(=O)c2c(nc(N/N=C/c3cccs3)n2Cc2ccc(Br)cc2)n(C)c1=O")
"inactive"
>>> group_label("Cc1n[nH]c(=O)nc1N/N=C/c1cccs1")
"active"

Input line: Each compound tested received a call. Report the one for `COc1ccc(-c2cc(-c3nnc(SCC(=O)Nc4cccc5ccccc45)n3N)[nH]n2)cc1` .
Output line: inactive

Input line: Same thing, different compound: Cc1ccc(C(=O)N(Cc2ccccn2)CC2CCCO2)cc1 (configuration not stated)
Output line: inactive

Input line: Same thing, different compound: `Fc1ccc(CNc2nc3ccccc3n3nnnc23)cc1`
Output line: active

Input line: Same thing, different compound: `COCc1nc2ccccc2n1Cc1ccccc1Br`
Output line: inactive

Input line: Same thing, different compound: `Cc1cc(-c2n[nH]c(=S)n2/N=C/C(Br)=C/c2ccccc2)n[nH]1`
Output line: active

Input line: Same thing, different compound: `CCCNC(=O)Nc1ccc2c(c1)C(=O)N(C)[C@H]1CC[C@H](CC(=O)NCC3CCCCC3)O[C@@H]1CO2`
Output line: inactive

Input line: Same thing, different compound: `COc1ccccc1Cn1c(CO)nc2ccccc21`
Output line: inactive

Input line: Same thing, different compound: CC(C)(C)N1CC(c2nc3ccccc3n2Cc2ccc(F)cc2)CC1=O (configuration not stated)
Output line: inactive

Input line: Same thing, different compound: `Cc1ccc(Cn2cc(COC(=O)N(C)Cc3ccccc3)nn2)cc1`
Output line: inactive

Input line: Same thing, different compound: CCC(c1ccc(NC(=O)OC(C)(C)C)cc1)c1cc(OC)cc(OC)c1 (configuration not stated)
Output line: inactive

Input line: Same thing, different compound: `COC(=O)[C@]1(C#N)CC(=O)N(CC2CCCCC2)[C@@H]1c1ccccc1`
Output line: inactive

---

- PROCEDURE_DETAILS: SMARCA2 (BRM) function activators, primary screen, cell-based, luminescence, high throughput (AID 652017);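 note: 0% = vehicle wells and 100% = reference activator wells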
- TEST_CONDITIONS: MG213 cells, MMTV-luciferase reporter, dexamethasone, overnight; at 9.1 µM
Among all 370,000 compounds or so, about 3,800 (1%) were called active. Cut-off read from the data, not from the text of the source: active = activation above about 7.8%; inactive = the rest. For the sample, actives were picked, then their nearest neighbours and some compounds at random.
Field 'call' accepts 1 (active), 0 (inactive)

Here are 6 molecules together with their reported answers.
>>> group_label("COC(=O)[C@]12C[C@H](CC(=O)NCc3ccccc3)C(=O)N(CCC3=CCCCC3)C1=C[C@H](C(C)C)O[C@@H]2C1CC1")
0
>>> group_label("CC(CCN1CCC(C(O)(c2ccccc2)c2ccccc2)CC1)Oc1ccc(Cl)cc1 (stereo unspecified)")
0
>>> group_label("Cc1ccc(C(=O)CSc2ccccc2C(=O)O)cc1")
1
>>> group_label("O=C(COC(=O)C1CC2C=CC1C2)Nc1ccccc1 (stereo unspecified)")
0
>>> group_label("COc1ccc(C(CNC(=O)c2ccc(S(=O)(=O)Nc3ccccc3F)cc2)N(C)C)cc1 (stereo unspecified)")
1
>>> group_label("COc1ccc(S(=O)(=O)NC(C)C(=O)N2CCCCCC2)cc1 (stereo unspecified)")
1

Input line: Each molecule tested received a call. Report the one for COc1ccc(C(CNC(=O)c2ccc(NS(=O)(=O)c3ccc(F)c(C)c3)cc2)N(C)C)cc1 (stereo unspecified) .
Output line: 0

Input line: Same thing, different molecule: CC(NC(=S)Nc1ccc(OC(F)F)cc1)c1ccc(F)cc1 (stereo unspecified)
Output line: 0

Input line: Same thing, different molecule: `C=CCN1C(=O)[C@@H](CC(=O)NCC2CCCCC2)[C@]2(C(=O)OC)CCCCC=C12`
Output line: 0

Input line: Same thing, different molecule: `C[C@@H]1ON(C)[C@H]2C[C@H]3c4[nH]c5cccc(-c6ccc7c(c6)OCO7)c5c4CCN3C[C@@H]12`
Output line: 0

Input line: Same thing, different molecule: CC1(C)O[C@@H]2CC3C4C[C@H](F)C5=CC(=O)C=CC5(C)C4C(O)CC3(C)[C@]2(C(=O)CO)O1 (stereo partly specified)
Output line: 0

Input line: Same thing, different molecule: `COc1ccc(NC(=O)Cn2ncn3c(cc4ccccc43)c2=O)c(OC)c1OC`
Output line: 0

Input line: Same thing, different molecule: `CCCCCCNS(=O)(=O)c1ccccc1Br`
Output line: 0

Input line: Same thing, different molecule: Cc1ccn(CCC(=O)N2c3ccccc3CC2C)n1 (stereo unspecified)
Output line: 0

Input line: Same thing, different molecule: CCCC(=O)N1c2ccc(-c3csc(N)n3)cc2CC1C (stereo unspecified)
Output line: 1

Input line: Same thing, different molecule: `COc1ccccc1N(CC(=O)Nc1ccc(C(F)(F)F)cc1)S(C)(=O)=O`
Output line: 0

Input line: Same thing, different molecule: `O=C(CSc1nc2ccccc2s1)N=Nc1c(O)[nH]c2ccccc12`
Output line: 0

Input line: Same thing, different molecule: COc1ccc(-c2cc(C(=O)NC(Cc3c[nH]c4ccccc34)C(=O)O)c(C)o2)cc1OC (stereo unspecified)
Output line: 0
